Test system: Nucleoside Kinases
Assay: Pyrimidine nucleoside kinase kinetics, human liver
Type: biochemical
Conditions: substrate of nucleoside kinases, 37° C.

- molecule.smiles: "O=c1ccn([C@@H]2O[C@H](CO)[C@@H](O)[C@H]2O)c(=O)[nH]1"
  unit.of.measurement: "µM"
  Km: 55.8
- molecule.smiles: "Cc1cn([C@H]2C[C@H](O)[C@@H](CO)O2)c(=O)[nH]c1=O"
  unit.of.measurement: "µM"
  Km: 6.41
- molecule.smiles: "O=c1[nH]c(=O)n([C@@H]2O[C@H](CO)[C@@H](O)[C@H]2O)cc1F"
  unit.of.measurement: "µM"
  Km: 25.1
- molecule.smiles: "O=c1[nH]c(=O)n([C@H]2C[C@H](O)[C@@H](CO)O2)cc1F"
  unit.of.measurement: "µM"
  Km: 3.1

* * *

Test system: Nucleoside Kinases
Assay: Pyrimidine nucleoside kinase kinetics, human liver
Format: biochemical
Details: substrate of nucleoside kinases, 37° C.
Item-by-item account of Vmax

- compound: "O=c1[nH]c(=O)n([C@@H]2O[C@H](CO)[C@@H](O)[C@H]2O)cc1F [5-Fluorouridine]"
  test.system: "Nucleoside Kinases"
  unit.of.measurement: "nmol/min/mg"
  Vmax: 0.013
- compound: "O=c1ccn([C@@H]2O[C@H](CO)[C@@H](O)[C@H]2O)c(=O)[nH]1 [Uridine, uridine]"
  test.system: "Nucleoside Kinases"
  unit.of.measurement: "nmol/min/mg"
  Vmax: 0.031
- compound: "Cc1cn([C@H]2C[C@H](O)[C@@H](CO)O2)c(=O)[nH]c1=O [Thymidine, thymidine]"
  test.system: "Nucleoside Kinases"
  unit.of.measurement: "nmol/min/mg"
  Vmax: 0.025
- compound: "O=c1[nH]c(=O)n([C@H]2C[C@H](O)[C@@H](CO)O2)cc1F [5-Fluoro-2'-deoxyuridine, 5-fluoro-2'-deoxyuridine]"
  test.system: "Nucleoside Kinases"
  unit.of.measurement: "nmol/min/mg"
  Vmax: 0.016

* * *

Item-by-item account of Vmax /Km
Tested on: Nucleoside Kinases
Test: Pyrimidine nucleoside kinase kinetics, human liver
Assay type: biochemical
Details: substrate of nucleoside kinases

- molecule: "Cc1cn([C@H]2C[C@H](O)[C@@H](CO)O2)c(=O)[nH]c1=O [Thymidine, thymidine]"
  test.system: "Nucleoside Kinases"
  Vmax /Km, min^-1 × 10^3: 4.00
- molecule: "O=c1ccn([C@@H]2O[C@H](CO)[C@@H](O)[C@H]2O)c(=O)[nH]1 [Uridine, uridine]"
  test.system: "Nucleoside Kinases"
  Vmax /Km, min^-1 × 10^3: 0.55
- molecule: "O=c1[nH]c(=O)n([C@@H]2O[C@H](CO)[C@@H](O)[C@H]2O)cc1F [5-Fluorouridine]"
  test.system: "Nucleoside Kinases"
  Vmax /Km, min^-1 × 10^3: 0.50
- molecule: "O=c1[nH]c(=O)n([C@H]2C[C@H](O)[C@@H](CO)O2)cc1F [5-Fluoro-2'-deoxyuridine, 5-fluoro-2'-deoxyuridine]"
  test.system: "Nucleoside Kinases"
  Vmax /Km, min^-1 × 10^3: 5.17

* * *

Test system: Nucleoside Phosphorylase
Test: Pyrimidine nucleoside phosphorylase kinetics, human liver
Format: biochemical
Settings: substrate of nucleoside phosphorylase, 37° C.
Item-by-item account of Km
metric: Km

- molecule.smiles: "O=c1[nH]c(=O)n([C@H]2C[C@H](O)[C@@H](CO)O2)cc1F"
  assay.value: "215 µM"
- molecule.smiles: "Cc1cn([C@H]2C[C@H](O)[C@@H](CO)O2)c(=O)[nH]c1=O"
  assay.value: "256 µM"
- molecule.smiles: "O=c1ccn([C@@H]2O[C@H](CO)[C@@H](O)[C@H]2O)c(=O)[nH]1"
  assay.value: "99.1 µM"
- molecule.smiles: "O=c1[nH]c(=O)n([C@@H]2O[C@H](CO)[C@@H](O)[C@H]2O)cc1F"
  assay.value: "286 µM"
